meta.source: patent US20150274664A1

Molecular target: human SNP variant (S309L) of GPR119 (Homo sapiens, UniProt Q8TDV5, S309L)
Sequence (Q8TDV5 1-335 S309L): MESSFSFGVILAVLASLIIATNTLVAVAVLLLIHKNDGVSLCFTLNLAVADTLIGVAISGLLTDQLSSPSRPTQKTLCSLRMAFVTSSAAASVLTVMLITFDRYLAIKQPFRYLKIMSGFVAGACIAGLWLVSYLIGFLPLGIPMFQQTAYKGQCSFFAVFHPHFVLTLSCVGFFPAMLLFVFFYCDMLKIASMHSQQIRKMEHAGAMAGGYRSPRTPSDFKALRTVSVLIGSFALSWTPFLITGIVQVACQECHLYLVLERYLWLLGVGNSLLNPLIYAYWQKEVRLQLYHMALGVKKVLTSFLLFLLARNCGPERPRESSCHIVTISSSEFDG
Experiment: GPR119 signaling, cAMP homogenous time resolved fluorescence (HTRF) assay
Details: HEK293 Flp-In cells stably transfected with human GPR119 (S309L), HTRF kit
MEASURE: EC50 (nM)

Below, 8 compounds whose answers are already recorded.
| MOL_SMILES | EXPERIMENTAL_SYSTEM | ENDPOINT_VALUE |
| --- | --- | --- |
| CS(=O)(=O)c1ccc(OCC[C@@]2(C#N)C[C@@H]2C2CCN(c3ncc(Cl)cn3)CC2)cc1 | human SNP variant (S309L) of GPR119 (Homo sapiens, UniProt Q8TDV5, S309L) | 3 |
| CC1(OC(=O)N2CCC([C@H]3C[C@@H]3COCc3ccc(S(C)(=O)=O)c(F)c3)CC2)CC1 | human SNP variant (S309L) of GPR119 (Homo sapiens, UniProt Q8TDV5, S309L) | 4.6 |
| CS(=O)(=O)c1ccc(COC[C@H]2C[C@@H]2C2CCN(c3ncc(Cl)cn3)CC2)cc1 | human SNP variant (S309L) of GPR119 (Homo sapiens, UniProt Q8TDV5, S309L) | 1.2 |
| CS(=O)(=O)c1ccc(OCC[C@@H]2C[C@H]2C2CCN(c3nc(C4CCC4)no3)CC2)nc1 | human SNP variant (S309L) of GPR119 (Homo sapiens, UniProt Q8TDV5, S309L) | 4.8 |
| COCc1cnc(N2CCC([C@H]3C[C@@H]3CCNc3ncc(-n4cnnn4)cn3)CC2)nc1 | human SNP variant (S309L) of GPR119 (Homo sapiens, UniProt Q8TDV5, S309L) | 5.2 |
| CCS(=O)(=O)c1ccc(COC[C@H]2C[C@@H]2C2CCN(c3ncc(Cl)cn3)CC2)cc1 | human SNP variant (S309L) of GPR119 (Homo sapiens, UniProt Q8TDV5, S309L) | 0.73 |
| CS(=O)(=O)c1ccc(COC[C@H]2C[C@@H]2C2CCN(c3ncc(Cl)cn3)CC2)cc1F | human SNP variant (S309L) of GPR119 (Homo sapiens, UniProt Q8TDV5, S309L) | 1 |
| CS(=O)(=O)c1ccc(COC[C@H]2C[C@@H]2C2CCN(c3ncc(Cl)cn3)CC2)nc1 | human SNP variant (S309L) of GPR119 (Homo sapiens, UniProt Q8TDV5, S309L) | 3.8 |

A. CC(C)OC(=O)N1CCC([C@H]2C[C@@H]2COCc2ccc(S(C)(=O)=O)cc2)CC1
B. CC(C)c1noc(N2CCC([C@H]3C[C@@H]3COCc3ccc(S(C)(=O)=O)c(F)c3)CC2)n1
### Prompt Which numeric EC50 is bigger, that of A or that of B ? Choose, then provide that item's label.
### Response A
(A: 9.1 nM, B: 3.2 nM)
